Below, each entry is listed with its recorded Post-emerge Herbicidal Activity CORN (crop damage).
tested on: field corn (Zea mays L., var. Dekalb 535, CORN); assay: Post-emerge test, crop safety; type: in vivo; details: 63 g ai/ha; phytotoxicity rating 0-100 (0 no damage, 100 complete death), 14 days after application
Respond using a number only.

COc1c(Cl)cc(F)c(-n2c(=O)cc(C(F)(F)F)n(C)c2=O)c1NC(=O)C(F)(F)F = 5
C#CCOc1c(Cl)cc(F)c(-n2c(=O)cc(C(F)(F)F)n(C)c2=O)c1N = 5

Data request, read-out Post-emerge Herbicidal Activity CORN (crop damage), for Cn1c(C(F)(F)F)cc(=O)n(-c2c(F)cc(Cl)c(OC3CCCC3)c2N)c1=O
5
